Tested on: NCI-H23 lung
Assay: NCI-60 one-dose screen, 48 h (100 = growth as untreated, 0 = no growth, -100 = all killed)
Conditions: 10 µM unless noted
Procedure: Growth inhibition of the NCI-H23 human Non-Small Cell Lung tumor cell line is measured as a screen for anti-cancer activity. Cells are grown in 96 well plates and exposed to the test compound for 48 hours. Compounds are tested at a single concentration, which is 10^-5 M for most compounds. The reported endpoint is percent growth (GI% or GIPRCNT), where numbers from 0 - 100% represent growth inhibition, and numbers from -100% - 0 represent cell death. […]
Compounds without any hit were thinned out: in the full panel of roughly 83,000, 20% have a hit.
Label True for high-side growth (at or above 80%) and False for low-side growth (below it).

>>> assigned_category("O=C(Cc1ccccc1)c1ccc(Cl)cc1")
"True"
>>> assigned_category("CC(=O)Oc1ccc(Nc2c3ccccc3nc3ccccc23)cc1")
"False"
>>> assigned_category("COc1nc2c(cc1S(=O)(=O)c1ccccc1)CCc1c-2cnn1Cc1ccccc1")
"False"
>>> assigned_category("Cc1ccc(SCN2CCN(c3cccc(Cl)c3)CC2)cc1")
"True"
>>> assigned_category("NC(=S)N/N=C/c1ccc(OCc2ccccc2)cc1")
"True"
>>> assigned_category("C=C1CC2(OC1=O)C(=O)N(CCCCCCCCCCCCN1C(=O)C3(CC(=C)C(=O)O3)c3ccccc31)c1ccccc12 (stereo not drawn)")
"True"
>>> assigned_category("CCN(CC)CCC(=O)c1ccc(OC)c2ccccc12")
"True"
>>> assigned_category("Cc1csc2ccc(Cl)cc12")
"True"
>>> assigned_category("COc1cccc2c1C(=O)c1c(O)c3c(c(O)c1C2=O)C[C@@](O)(/C(C)=N/NC(=O)c1ccc(Cl)cc1)C[C@@H]3OC1CC(N)C(O)C(C)O1 (stereo partly drawn)")
"False"
>>> assigned_category("CNC(=O)c1cc(Oc2ccc3nc(NC(=O)Nc4ccc(CN5CCOCC5)c(C(F)(F)F)c4)sc3c2)ccn1")
"False"
>>> assigned_category("O=c1[nH]c(-c2ccccn2)nc2sc3c(c12)CCCCC3")
"False"
>>> assigned_category("COc1ccc(/C=C2\\CN(C(=O)CCN3CCC(=NO)CC3)C/C(=C\\c3ccc(OC)cc3)C2=O)cc1")
"False"
>>> assigned_category("CCOC(=O)c1c2c(n3ccc(NC(=O)CCN(CC)CC)cc13)C(=O)c1ncccc1C2=O")
"False"
>>> assigned_category("Nc1cc2ccncc2c2ccccc12")
"False"
>>> assigned_category("O=C1C(Cl)=C(Cl)C(=O)c2c1nc1n2CCCC1")
"False"
>>> assigned_category("COc1cc(-c2cc(-c3nc4ccc(Cl)cc4[nH]3)[nH]n2)cc(OC)c1OC")
"False"
>>> assigned_category("Cn1c2c(Cl)c(Cl)ccc2c2ccn3c(=O)c4ccccc4nc3c21")
"True"
>>> assigned_category("O=C1Nc2ccccc2/C1=C/C(=N/c1nnc(-c2ccccc2)s1)c1ccccc1")
"False"
>>> assigned_category("COc1ccc2nc3cc(Cl)ccc3c(N3CCN(c4ccnc(N5CCOCC5)n4)CC3)c2c1")
"False"
>>> assigned_category("Cc1nn(-c2nc3ccccc3[nH]2)c2c1C(c1ccc3c(c1)OCO3)CC(=O)N2 (stereo not drawn)")
"False"
>>> assigned_category("NS(=O)(=O)c1ccc(-n2ncc3c(=O)[nH]c(CN4CCN(c5cc6c(cc5F)c(=O)c(C(=O)O)cn6C5CC5)CC4)nc32)cc1")
"True"
>>> assigned_category("Cc1noc(C)c1-c1cc(O)cc(C(O)c2ccccc2)c1 (stereo not drawn)")
"False"
>>> assigned_category("OC(c1cc(-c2ccccc2)nc2ccc(Cl)cc12)C1CCCCN1 (stereo not drawn)")
"False"
>>> assigned_category("CCCCCCCCCCCCCC1=NCCN1CCO")
"False"
>>> assigned_category("CCCN(CCC)CN(CCC)CCC")
"True"
>>> assigned_category("O=C1Nc2ccccc2C12CC(c1ccc(Cl)cc1)=NN2 (stereo not drawn)")
"True"

###

test system: HCT-15 colon; assay: NCI-60 one-dose screen, 48 h (100 = growth as untreated, 0 = no growth, -100 = all killed); settings: 10 µM unless noted
About 83,000 compounds went through this panel and 20% of them were active in at least one assay; those are over-represented in the sample as a whole.
In this section we review reported growth values for a set of compounds.
value.type: growth (%)

>>> observed("CCOC(=O)C(Cc1cc(I)c(O)c(I)c1)NC(=O)c1ccccc1 (stereo unspecified)")
98.6
>>> observed("COc1cnc2c(c1)C(=O)c1c-2n(CCCBr)c(=O)c2cc([N+](=O)[O-])ccc12")
20.7
>>> observed("CCN(CC)CCCNc1cc(OC)cc2nc3cc(Cl)ccc3nc12")
-11.9
>>> observed("Cc1cc(N/N=C/c2nc(-c3ccc(Cl)cc3)oc2C)c2cc(Cl)ccc2n1")
-52.6
>>> observed("Cc1cc(OCc2ccc(C(F)(F)F)cc2)c2c(c1)C(=O)C=C(NCCN1CCCC1)C2=O")
31.2
>>> observed("O=C(NCc1cccc(C(F)(F)F)c1)[C@H](CCC(=O)N1CCN(C2CCCCC2)CC1)N1C(=O)[C@@H](N2C(=O)OC[C@@H]2c2ccccc2)[C@H]1/C(Cl)=C/c1ccccc1")
31.8

###

system: MALME-3M melanoma; test: NCI-60 one-dose screen, 48 h; conditions: 10 µM unless noted
Compounds without any hit were thinned out: in the full panel of roughly 83,000, 20% have a hit. Active and inactive are the calls of the source. The calls were made as follows: active = growth percent below 10; inactive = the rest.
Possible outcomes: YES for active, NO for inactive

>>> assigned_category("Nc1cc(O)cc2cccnc12")
"NO"
>>> assigned_category("CCN(CC)CCCC(C)NCCCNc1cccc2cccnc12 (stereo not drawn)")
"NO"
>>> assigned_category("CC(C)n1cc2c(N)ncnc2n1")
"NO"
>>> assigned_category("Cc1ccc(-c2nc(/C=N/Nc3cc(C)nc4ccc(Br)cc34)c(C)o2)cc1")
"YES"
>>> assigned_category("COc1c(C2CC(=O)Nc3c2cnn3Cc2ccco2)cc2c(c1OC)OCO2 (stereo not drawn)")
"NO"
>>> assigned_category("CCN(CC)CCCC(C)Nc1ccnc2c(OC)cccc12 (stereo not drawn)")
"NO"
>>> assigned_category("ClC1=C2NC=NC2n2c(nnc2-c2ccc(Cl)cc2)N1 (stereo not drawn)")
"NO"
>>> assigned_category("Cc1cc(Nc2nc(N3CCN(C)CC3)nc3ccccc23)n[nH]1")
"NO"
>>> assigned_category("CCN(CC)CCCC(C)N/C(=C1\\C(=O)NC(=O)\\C1=C(/NC(C)CCCN(CC)CC)c1cccc(OC)c1)c1cccc(OC)c1 (stereo not drawn)")
"YES"
>>> assigned_category("O=C1/C(=C/c2ccc(F)cc2)CN(C(=O)CCN2CCC(=NO)CC2)C/C1=C\\c1ccc(F)cc1")
"YES"
>>> assigned_category("CCN(CC)CCCCNc1ccc(NCCCCN(CC)CC)c2c1C(=O)c1ccccc1C2=O")
"NO"
>>> assigned_category("O=C(C[C@@H](C(=O)NCc1cccc(C(F)(F)F)c1)N1C(=O)[C@@H](N2C(=O)OC[C@@H]2c2ccccc2)[C@H]1/C=C/c1ccccc1)NC1CCN(Cc2ccccc2)CC1")
"YES"
>>> assigned_category("Cc1nc2sc(C(=O)Nc3cccc4c3OCCO4)c(N)c2cc1C(C)O (stereo not drawn)")
"NO"

###

In this section we review reported growth values for a set of molecules.
tested on: K-562 leukemia; test: NCI-60 one-dose screen, 48 h (100 = growth as untreated, 0 = no growth, -100 = all killed); details: 10 µM unless noted
This is part of a sample that, as a whole, favours compounds with a hit. Of some 83,000 tested, about 20% had one in any assay.
value.type: growth (%)

>>> observed("CCN(CC)CC(C)Nc1ccc([N+](=O)[O-])c2sc3ccccc3c(=O)c12 (configuration not stated)")
-14.2
>>> observed("COc1cccc(-c2nc3sccn3c2-c2ccnc(NCCCNS(=O)(=O)c3ccccc3)c2)c1")
13.9
>>> observed("c1ccc(Sc2ncnc3ccccc23)cc1")
71.4
>>> observed("COc1ccc2nc3cc(Cl)ccc3c(N3CCN(c4nccc(Nc5ccccc5)n4)CC3)c2c1")
41.5
>>> observed("O=C1CC(c2nc3ccccc3s2)CN1C1CCCCC1 (configuration not stated)")
96.7
>>> observed("O=C1/C(=C/c2ccc(Cl)c(Cl)c2)CN(C(=O)CCN2CCC(=NO)CC2)C/C1=C\\c1ccc(Cl)c(Cl)c1")
-27
>>> observed("C=CC[N+]1(CC)CCN=C1CCCCCCCCCCCCCCCCC (configuration not stated)")
-66.9
>>> observed("C[C@]12C[C@@H](c3ccoc3)OC(=O)[C@@H]1CC[C@]1(C)[C@@H]2CC[C@@H](O)[C@]1(C)O")
39.8
>>> observed("CCC(c1ccc(O)cc1)C(CC)c1ccc(O)c(F)c1 (configuration not stated)")
47.4
>>> observed("CC1=NNC(=O)C1C (configuration not stated)")
97.3
>>> observed("O=C(CN1CCN(c2cc3c(cc2F)c(=O)c(C(=O)O)cn3C2CC2)CC1)Nc1nc(-c2ccc(Cl)cc2)cs1")
25.3
>>> observed("Nc1cc2nc3ccccc3sc-2cc1=O")
28.5
